Measured inhibition values are reported for all entries that follow.
# Tested target: Phosphatidylinositol 4-kinase beta (Homo sapiens);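 also: values are mean percent inhibition of PI4K-beta activity, averaged over replicate measurements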
# Experimental context: at 1 µM
Observable: inhibition (%)

>>> number("COC(=O)Nc1nc2ccc(Oc3ccc(NC(=O)Nc4cc(C(F)(F)F)ccc4F)cc3)cc2s1")
-0.16
>>> number("Fc1ccc(Nc2nccc(-c3c(-c4ccc(C(F)(F)F)cc4)nn4ncccc34)n2)cc1F")
-1.62
>>> number("COc1cccc(Nc2nccc(-c3cnn4ncccc34)n2)c1")
11.1

----------
# Tested target: Proto-oncogene tyrosine-protein kinase receptor Ret (Homo sapiens) (UniProt P07949);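 also: reported figure is the mean of RET inhibition measurements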
# Sequence (P07949 whole entry): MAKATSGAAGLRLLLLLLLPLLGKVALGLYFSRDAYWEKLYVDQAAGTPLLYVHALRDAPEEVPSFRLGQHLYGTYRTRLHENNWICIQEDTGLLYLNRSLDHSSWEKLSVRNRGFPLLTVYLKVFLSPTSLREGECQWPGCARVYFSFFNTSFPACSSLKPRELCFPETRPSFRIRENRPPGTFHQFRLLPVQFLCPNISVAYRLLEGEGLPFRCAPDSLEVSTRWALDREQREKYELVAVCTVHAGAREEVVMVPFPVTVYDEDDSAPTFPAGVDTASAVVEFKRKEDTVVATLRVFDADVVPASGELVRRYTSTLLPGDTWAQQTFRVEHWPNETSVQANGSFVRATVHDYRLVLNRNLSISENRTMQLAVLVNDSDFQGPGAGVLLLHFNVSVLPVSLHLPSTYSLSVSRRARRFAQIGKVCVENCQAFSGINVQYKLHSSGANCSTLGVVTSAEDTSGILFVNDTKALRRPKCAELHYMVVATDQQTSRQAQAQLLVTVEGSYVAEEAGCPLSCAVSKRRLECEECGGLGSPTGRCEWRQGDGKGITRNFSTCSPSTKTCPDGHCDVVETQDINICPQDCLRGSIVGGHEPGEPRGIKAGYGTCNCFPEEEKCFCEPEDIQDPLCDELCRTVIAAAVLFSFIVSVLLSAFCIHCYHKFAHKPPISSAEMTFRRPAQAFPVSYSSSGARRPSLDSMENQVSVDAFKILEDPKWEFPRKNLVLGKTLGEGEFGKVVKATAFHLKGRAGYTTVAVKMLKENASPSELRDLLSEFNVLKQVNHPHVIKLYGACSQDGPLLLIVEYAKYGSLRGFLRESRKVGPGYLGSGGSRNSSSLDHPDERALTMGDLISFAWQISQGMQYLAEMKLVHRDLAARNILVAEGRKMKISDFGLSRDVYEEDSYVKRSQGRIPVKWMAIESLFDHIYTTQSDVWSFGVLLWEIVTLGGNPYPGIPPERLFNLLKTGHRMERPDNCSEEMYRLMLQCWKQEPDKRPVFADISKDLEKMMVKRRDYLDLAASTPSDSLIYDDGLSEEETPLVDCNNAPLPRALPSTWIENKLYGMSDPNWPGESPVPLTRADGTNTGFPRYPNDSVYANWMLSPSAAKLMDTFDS
# Experimental context: at 0.1 µM
Measured inhibition values are reported for all entries that follow.
Observable: inhibition (%)

>>> number("CS(=O)(=O)Nc1ccc(-c2cc(-c3ccccc3)cc(C(N)=O)c2N)cc1")
-0.09
>>> number("CS(=O)(=O)CCNCc1ccc(-c2ccc3ncnc(Nc4ccc(OCc5ccccc5)cc4)c3c2)o1")
2.99
>>> number("COc1cccc(Nc2nccc(-c3cnn4ncccc34)n2)c1")
1.21
>>> number("Fc1ccc(Nc2nccc(-c3c(-c4ccc(C(F)(F)F)cc4)nn4ncccc34)n2)cc1F")
4
>>> number("Cn1c(-c2nonc2N)nc2cnccc21")
2.99
>>> number("Cc1cc(O)cc(C)c1/C=C/c1cncc(C(=O)OC(C)(C)C)c1")
5.39
>>> number("O=C(Nc1n[nH]c2nnc(-c3cccnc3)cc12)C1CC1")
-1.02
>>> number("COc1ccc2ncn(-c3cc(O[C@H](C)c4ccccc4C(F)(F)F)c(C(N)=O)s3)c2c1")
1.52
>>> number("COc1cc(Nc2ncc(-c3ccccc3)o2)cc(OC)c1")
7.16
>>> number("CCn1c(-c2nonc2N)nc2cncc(C(=O)NCCNC)c21")
6.45
>>> number("CN(c1ccc(NC(=O)NCCN2CCOCC2)cc1)c1ccnc(Nc2ccc(CS(C)(=O)=O)cc2)n1")
16.5
>>> number("CC(C)c1ccc(-c2cc(-c3c[nH]nc3-c3ccccn3)ccn2)cc1")
2.14
>>> number("OCCCNc1nccc(-c2c(-c3ccc(F)cc3)nn3cc(C(F)(F)F)ccc23)n1")
4.24
>>> number("O=C(O[C@H]1CN[C@H](C#Cc2cc3ncnc(Nc4ccc(OCc5cccc(F)c5)c(Cl)c4)c3s2)C1)N1CCOCC1")
2
>>> number("CNC(=O)c1sc(-n2cnc3cc(OC)c(OC)cc32)cc1OCc1ccccc1C(F)(F)F")
1.78
>>> number("CC1(C)CC(n2cnc(-c3ccc(F)cc3)c2-c2ccnc(N)n2)CC(C)(C)N1")
-0.92
>>> number("NS(=O)(=O)c1ccc(N/N=C2\\C(=O)Nc3cccc(CCc4ccncc4)c32)cc1")
21.6
>>> number("COC(=O)Nc1nc2ccc(Oc3ccc(NC(=O)Nc4cc(C(F)(F)F)ccc4F)cc3)cc2s1")
86.7
>>> number("NS(=O)(=O)c1cccc(N/C=C2\\C(=O)Nc3ccccc32)c1")
7.9
>>> number("COc1cc(N2CCN(C(C)C)CC2)ccc1Nc1nc(Nc2cccc3ncccc23)c2cc[nH]c2n1")
4.55
>>> number("NS(=O)(=O)c1ccc(N/N=C2\\C(=O)Nc3ccc(C(=O)NCc4ccncc4)cc32)cc1")
11.1
>>> number("CNC(=O)c1cncc(/C=C/c2ccccc2C)c1")
3.93
>>> number("CNC(=O)c1ncccc1Nc1nc(Nc2cc3c(cc2OC)CCCN3C(=O)CN(C)C)nc2[nH]ccc12")
7.39
>>> number("CCN1CCC(C(=O)Nc2n[nH]c3nnc(-c4cccc(F)c4F)cc23)CC1")
2.54

----------
Measured inhibition values are reported for all entries that follow.
# Tested target: Rho-associated protein kinase 1 (Homo sapiens) (UniProt Q13464);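 also: values are mean percent inhibition of ROCK1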
# Sequence (Q13464 2-1354 limits assumed): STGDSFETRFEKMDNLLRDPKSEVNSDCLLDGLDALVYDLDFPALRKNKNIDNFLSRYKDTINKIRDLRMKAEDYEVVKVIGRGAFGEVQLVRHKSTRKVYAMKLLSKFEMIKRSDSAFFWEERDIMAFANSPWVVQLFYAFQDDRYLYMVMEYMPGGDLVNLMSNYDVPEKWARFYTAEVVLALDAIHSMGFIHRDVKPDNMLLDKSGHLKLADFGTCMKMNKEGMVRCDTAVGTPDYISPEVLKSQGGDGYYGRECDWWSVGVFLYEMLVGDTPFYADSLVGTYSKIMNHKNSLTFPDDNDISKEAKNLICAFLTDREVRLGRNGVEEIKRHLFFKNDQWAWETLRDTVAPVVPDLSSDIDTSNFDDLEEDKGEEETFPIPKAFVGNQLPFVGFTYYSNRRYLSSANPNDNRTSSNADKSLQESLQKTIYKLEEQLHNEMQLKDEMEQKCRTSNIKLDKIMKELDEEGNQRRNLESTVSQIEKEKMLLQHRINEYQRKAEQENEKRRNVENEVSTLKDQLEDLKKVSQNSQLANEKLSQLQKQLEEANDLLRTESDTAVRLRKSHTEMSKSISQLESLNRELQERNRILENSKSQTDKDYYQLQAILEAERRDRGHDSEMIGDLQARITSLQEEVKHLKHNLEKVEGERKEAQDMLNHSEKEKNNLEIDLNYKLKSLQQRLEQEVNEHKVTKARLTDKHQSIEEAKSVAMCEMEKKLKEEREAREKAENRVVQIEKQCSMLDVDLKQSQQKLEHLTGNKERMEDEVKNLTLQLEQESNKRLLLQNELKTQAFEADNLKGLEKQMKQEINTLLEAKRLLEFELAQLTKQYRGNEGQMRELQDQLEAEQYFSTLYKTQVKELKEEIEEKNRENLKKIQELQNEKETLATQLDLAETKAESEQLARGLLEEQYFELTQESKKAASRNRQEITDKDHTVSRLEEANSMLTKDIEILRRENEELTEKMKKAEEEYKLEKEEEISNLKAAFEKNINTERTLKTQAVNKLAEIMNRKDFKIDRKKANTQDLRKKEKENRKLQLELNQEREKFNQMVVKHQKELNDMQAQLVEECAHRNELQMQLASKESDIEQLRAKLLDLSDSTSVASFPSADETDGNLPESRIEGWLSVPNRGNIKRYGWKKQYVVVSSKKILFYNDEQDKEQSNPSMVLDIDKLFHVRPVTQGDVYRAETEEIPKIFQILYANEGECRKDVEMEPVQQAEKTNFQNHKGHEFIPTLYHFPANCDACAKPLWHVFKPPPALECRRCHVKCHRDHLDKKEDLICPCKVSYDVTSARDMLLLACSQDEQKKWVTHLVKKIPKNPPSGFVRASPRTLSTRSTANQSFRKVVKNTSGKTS
# Experimental context: at 0.1 µM
Observable: inhibition

>>> result("O=C(O[C@H]1CN[C@H](C#Cc2cc3ncnc(Nc4ccc5c(ccn5Cc5cc(F)ccc5F)c4)c3s2)C1)N1CCOCC1")
"0.77%"
>>> result("O=C(O[C@H]1CN[C@H](C#Cc2cc3ncnc(Nc4ccc(OCc5cccc(F)c5)c(Cl)c4)c3s2)C1)N1CCOCC1")
"0.81%"
>>> result("Cn1c(-c2nonc2N)nc2cnccc21")
"10.8%"
>>> result("c1cnn2ncc(-c3ccnc(NCCCN4CCOCC4)n3)c2c1")
"2.01%"
>>> result("CCN1CCC(C(=O)Nc2n[nH]c3nnc(-c4cccc(F)c4F)cc23)CC1")
"-0.76%"
>>> result("CNC(=O)c1ncccc1Nc1nc(Nc2cc3c(cc2OC)CCCN3C(=O)CN(C)C)nc2[nH]ccc12")
"1.58%"
>>> result("NS(=O)(=O)c1ccc(N/N=C2\\C(=O)Nc3cccc(CCc4ccncc4)c32)cc1")
"0.65%"
>>> result("Cc1nnc(-c2cccc(-c3ccc(C(=O)NCC4CC4)cc3)c2)o1")
"0.97%"
>>> result("CCn1c(-c2nonc2N)nc2cncc(C(=O)NCCNC)c21")
"71.8%"
>>> result("Cc1cc(O)cc(C)c1/C=C/c1cncc(C(=O)OC(C)(C)C)c1")
"2.92%"

----------
# Tested target: Phosphatidylinositol 4,5-bisphosphate 3-kinase catalytic subunit alpha isoform (Homo sapiens) (UniProt P42336);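 also: values are mean inhibition figures from the GSK PKIS kinase panel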
# Sequence (P42336 whole entry, canonical isoform): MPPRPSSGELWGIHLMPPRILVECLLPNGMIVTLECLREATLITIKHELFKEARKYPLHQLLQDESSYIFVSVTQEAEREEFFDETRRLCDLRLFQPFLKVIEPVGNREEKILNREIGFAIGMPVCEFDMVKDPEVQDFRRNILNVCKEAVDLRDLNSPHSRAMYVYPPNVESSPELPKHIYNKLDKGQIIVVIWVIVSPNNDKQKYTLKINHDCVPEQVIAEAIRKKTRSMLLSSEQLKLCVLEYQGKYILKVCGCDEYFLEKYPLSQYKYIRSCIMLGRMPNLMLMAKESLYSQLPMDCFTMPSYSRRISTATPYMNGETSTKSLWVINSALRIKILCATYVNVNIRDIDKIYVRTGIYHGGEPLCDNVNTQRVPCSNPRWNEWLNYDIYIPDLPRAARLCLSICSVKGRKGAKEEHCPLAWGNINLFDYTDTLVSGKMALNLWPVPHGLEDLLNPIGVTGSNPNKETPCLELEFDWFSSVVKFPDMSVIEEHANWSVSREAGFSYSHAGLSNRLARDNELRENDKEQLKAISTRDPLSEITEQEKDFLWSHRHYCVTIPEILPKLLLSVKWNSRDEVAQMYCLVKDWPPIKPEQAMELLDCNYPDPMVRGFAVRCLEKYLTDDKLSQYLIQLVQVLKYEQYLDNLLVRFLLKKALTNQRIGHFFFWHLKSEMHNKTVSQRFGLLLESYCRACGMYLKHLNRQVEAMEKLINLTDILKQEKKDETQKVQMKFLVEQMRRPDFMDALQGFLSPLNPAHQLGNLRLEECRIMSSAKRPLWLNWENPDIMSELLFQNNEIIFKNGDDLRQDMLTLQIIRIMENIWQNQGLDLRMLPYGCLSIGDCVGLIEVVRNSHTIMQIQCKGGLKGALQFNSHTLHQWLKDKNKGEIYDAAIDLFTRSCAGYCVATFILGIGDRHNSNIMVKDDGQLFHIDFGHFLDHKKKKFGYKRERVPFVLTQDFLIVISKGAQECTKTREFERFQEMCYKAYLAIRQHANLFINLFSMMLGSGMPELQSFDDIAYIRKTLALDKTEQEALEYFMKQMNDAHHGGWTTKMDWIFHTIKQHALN
# Experimental context: at 0.1 µM
Measured inhibition values are reported for all entries that follow.
Observable: inhibition (%)

>>> number("CS(=O)(=O)CCNCc1ccoc1-c1ccc2ncnc(Nc3ccc(OCc4ccccc4)cc3)c2c1")
1.09
>>> number("CNC(=O)c1ncccc1Nc1nc(Nc2cc3c(cc2OC)CCCN3C(=O)CN(C)C)nc2[nH]ccc12")
3.55
>>> number("CC1=C(C(=O)Nc2ccc3[nH]nc(C)c3c2)C(c2ccc(C(F)(F)F)cc2)CC(=O)N1 (stereo not given)")
2.05
>>> number("COc1ccc2ncn(-c3cc(O[C@H](C)c4ccccc4C(F)(F)F)c(C(N)=O)s3)c2c1")
0.29
>>> number("O=C1Nc2ccccc2/C1=C1\\CCc2cc(O)ccc21")
3.67
>>> number("COc1ccccc1-c1cc(/C=C2\\C(=O)Nc3ncc(Br)cc32)cc(Br)c1O")
8.24
>>> number("CC1(C)CC(n2cnc(-c3ccc(F)cc3)c2-c2ccnc(N)n2)CC(C)(C)N1")
4.34
>>> number("COC(=O)Nc1nc2cc(Oc3ccc(NC(=O)Nc4ccccc4)cc3)ccc2[nH]1")
3.19
>>> number("COc1cc2c(cc1Nc1nc(Nc3cccc(F)c3C(N)=O)c3cc[nH]c3n1)N(C(=O)CN1CCN(C(C)C)CC1)CC2")
0.54
>>> number("COc1c(C(N)=O)cc(-c2ccc(Cl)cc2)cc1-c1ccc(S(N)(=O)=O)cc1")
4.8
>>> number("CCN1CCC(C(=O)Nc2n[nH]c3nnc(-c4cccc(F)c4F)cc23)CC1")
-1.4
>>> number("COc1cc(N2CCN(C(C)C)CC2)ccc1Nc1nc(Nc2cccc(F)c2C(=O)O)c2cc[nH]c2n1")
2.86
>>> number("CN(C)CCNC(=O)Nc1ccc(N(C)c2ccnc(Nc3ccc(CS(C)(=O)=O)cc3)n2)cc1")
2.6
>>> number("CN(c1ccc(NC(=O)NCCN2CCOCC2)cc1)c1ccnc(Nc2ccc(CS(C)(=O)=O)cc2)n1")
1.92
>>> number("FC(F)(F)CNc1nccc(-c2cnn3ncccc23)n1")
2.55
>>> number("NS(=O)(=O)c1ccc(N/N=C2\\C(=O)Nc3ccc(C(=O)NCc4ccncc4)cc32)cc1")
0.9
>>> number("N#Cc1ccc2c(-c3ccnc(NC4CC4)n3)c(-c3ccc(F)cc3)nn2c1")
0.7
>>> number("CC1=C(C(=O)Nc2ccc3[nH]ncc3c2)C(c2ccc(F)cc2)N=C(c2ccc(C(F)(F)F)nc2)N1 (stereo not given)")
2.87
>>> number("c1ccc(-c2n[nH]cc2-c2ccnc(-c3ccc(OCCn4ccnc4)cc3)c2)nc1")
0.67
>>> number("COc1cccc(-n2ncc3c(N/N=C/c4ccc(C(=O)NCCN(C)C)cc4)ncnc32)c1")
2.48
>>> number("O=C(O[C@H]1CN[C@H](C#Cc2cc3ncnc(Nc4ccc(OCc5cccc(F)c5)c(Cl)c4)c3s2)C1)N1CCOCC1")
4.94
>>> number("Fc1ccc(Nc2nccc(-c3c(-c4ccc(C(F)(F)F)cc4)nn4ncccc34)n2)cc1F")
3.44
>>> number("c1cnn2ncc(-c3ccnc(NCCCN4CCOCC4)n3)c2c1")
6.11
>>> number("Cc1c2ccc(N(C)c3ccnc(Nc4cccc(S(N)(=O)=O)c4)n3)cc2nn1C")
4.71
>>> number("CCOc1ccc2c(-c3ccnc(Nc4cc(OC)cc(C(F)(F)F)c4)n3)cnn2n1")
-0.03

----------
Measured inhibition values are reported for all entries that follow.
# Tested target: Serine/threonine-protein kinase Sgk3 (Homo sapiens) (UniProt Q96BR1);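 also: reported percentages are averaged inhibition values against SGK3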
# Sequence (whole entry): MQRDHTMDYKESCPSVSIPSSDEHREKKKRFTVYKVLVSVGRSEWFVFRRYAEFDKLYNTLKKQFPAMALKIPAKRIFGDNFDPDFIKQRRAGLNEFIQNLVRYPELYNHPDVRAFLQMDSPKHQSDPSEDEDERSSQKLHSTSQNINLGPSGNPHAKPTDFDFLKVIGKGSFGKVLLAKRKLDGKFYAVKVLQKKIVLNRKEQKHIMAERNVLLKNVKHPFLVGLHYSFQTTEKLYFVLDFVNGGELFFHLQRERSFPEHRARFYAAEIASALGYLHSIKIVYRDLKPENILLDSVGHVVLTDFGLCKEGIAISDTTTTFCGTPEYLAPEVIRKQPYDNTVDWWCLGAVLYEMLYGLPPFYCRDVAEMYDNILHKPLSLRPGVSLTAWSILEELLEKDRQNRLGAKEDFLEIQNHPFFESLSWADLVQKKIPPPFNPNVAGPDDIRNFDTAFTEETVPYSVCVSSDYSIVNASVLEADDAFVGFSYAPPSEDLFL
# Experimental context: at 0.1 µM
Observable: inhibition (%)

>>> number("CCCNc1cccc(-n2ncc3c(N/N=C/c4ccncc4)ncnc32)c1")
3.53
>>> number("CC1=C(C(=O)Nc2ccc3[nH]ncc3c2)C(c2ccc(F)cc2)N=C(c2ccc(C(F)(F)F)nc2)N1 (stereo not given)")
4.38
>>> number("Cn1c(-c2nonc2N)nc2cnccc21")
2.77
>>> number("N#Cc1ccc2c(-c3ccnc(NC4CC4)n3)c(-c3ccc(F)cc3)nn2c1")
2.02
>>> number("OCCCNc1nccc(-c2c(-c3ccc(F)cc3)nn3cc(C(F)(F)F)ccc23)n1")
1.97
>>> number("N#Cc1cccc(Nc2ncc(-c3ccccc3)o2)c1")
2.18
>>> number("COC(=O)Nc1nc2ccc(Oc3ccc(NC(=O)Nc4cc(C(F)(F)F)ccc4F)cc3)cc2s1")
1.37
>>> number("CN(C)CCNC(=O)Nc1ccc(N(C)c2ccnc(Nc3ccc(CS(C)(=O)=O)cc3)n2)cc1")
3.61
>>> number("CS(=O)(=O)Nc1ccc(-c2cc(-c3ccccc3)cc(C(N)=O)c2N)cc1")
0.13
>>> number("CNC(=O)c1ncccc1Nc1nc(Nc2cc3c(cc2OC)CCCN3C(=O)CN(C)C)nc2[nH]ccc12")
4.05
>>> number("c1ccc(-c2n[nH]cc2-c2ccnc(-c3ccc(OCCn4ccnc4)cc3)c2)nc1")
0.55
>>> number("CNC(=O)c1sc(-n2cnc3cc(OC)c(OC)cc32)cc1OCc1ccccc1C(F)(F)F")
3.8
>>> number("CS(=O)(=O)Nc1ccc(-c2ccc3c(NC(=O)C4CC4)n[nH]c3c2)cc1")
2.22
>>> number("CS(=O)(=O)CCNCc1ccc(-c2ccc3ncnc(Nc4ccc(OCc5ccccc5)cc4)c3c2)o1")
3.54
>>> number("O=C(O[C@H]1CN[C@H](C#Cc2cc3ncnc(Nc4ccc(OCc5cccc(F)c5)c(Cl)c4)c3s2)C1)N1CCOCC1")
7.16
>>> number("COc1ccc(-c2nn3ncccc3c2-c2ccnc(Nc3ccc(F)c(F)c3)n2)cc1")
5.09
>>> number("Cc1ccc(-c2cc3c(NC(=O)C4CC4)ncnc3o2)cc1")
3.61
>>> number("CN1CCC(n2cnc(-c3ccc(F)cc3)c2-c2ccnc(NCCO)n2)CC1")
5.14
>>> number("Cc1nnc(-c2cccc(-c3ccc(C(=O)NCC4CC4)cc3)c2)o1")
3.56
>>> number("COc1cc(Nc2ncc(-c3ccccc3)o2)cc(OC)c1")
3.26
